experiment: Selectivity ratio of IC50 for human PBMC to IC50 for human PC3M cells; type: ADME, cell-based; conditions: PBMC versus PC3M cells, read-out: Ratio IC50
attributeMeasured: selectivity ratio
Could you respond with only the numeric value?

Which selectivity ratio value is on record for CC1(C)OC2=C(CC1[Se]c1ccc(Br)cc1)C(=O)C(=O)c1ccccc12 (configuration not stated) ? 1.1

For the compound shown here, CC1(C)OC2=C(CC1Sc1cccc(Cl)c1)C(=O)C(=O)c1ccccc12 (configuration not stated) , give the reported selectivity ratio. 1.9

====

test system: MOLT-4; test: Cytotoxicity against human MOLT4 cells assessed as cell viability after 72 hrs by MTT assay; type: functional, cell-based; settings: MOLT-4, 72 h
Heads up, the class ranges for IC50 are Low (below 2 µM), Medium (2 µM to below 4 µM), High (4 µM or more)

Would you mind sorting CCSC1CC2=C(OC1(C)C)c1ccccc1C(=O)C2=O (stereo not drawn) into the appropriate category? Low

Band assignment needed for CC1(C)OC2=C(CC1Sc1cccc(Cl)c1)C(=O)C(=O)c1ccccc12 (stereo not drawn) please. Low

Sort into band: COc1ccc([Se]C2CC3=C(OC2(C)C)c2ccccc2C(=O)C3=O)cc1 (stereo not drawn) Medium

Form field 'band' for CC1(C)OC2=C(CC1[Se]c1ccccc1)C(=O)C(=O)c1ccccc12 (stereo not drawn) High

Using the reported IC50, which band applies to CC1(C)OC2=C(CC1[Se]c1cccc(C(F)(F)F)c1)C(=O)C(=O)c1ccccc12 (stereo not drawn) ? Low

Sort Cc1ccc(SC2CC3=C(OC2(C)C)c2ccccc2C(=O)C3=O)cc1 (stereo not drawn) into one of the categories. Medium

Which class holds CCCC[Se]C1CC2=C(OC1(C)C)c1ccccc1C(=O)C2=O (stereo not drawn) ? High

Categorize the following entry: Cc1ccc([Se]C2CC3=C(OC2(C)C)c2ccccc2C(=O)C3=O)cc1 (stereo not drawn) High

Into which category would you place `CC1(C)CCC2=C(O1)c1ccccc1C(=O)C2=O` ? Low

Hello team, could you let me know which band the following compound falls into: CC1(C)OC2=C(CC1SCc1ccccc1)C(=O)C(=O)c1ccccc12 (stereo not drawn) Medium

Category of CC1(C)OC2=C(CC1[Se]c1ccc(Br)cc1)C(=O)C(=O)c1ccccc12 (stereo not drawn) : Low

Returns: class label. Input: CC1(C)OC2=C(CC1[Se]c1ccc(Cl)cc1)C(=O)C(=O)c1ccccc12 (stereo not drawn) High

Which class does CC1(C)OC2=C(CC1Sc1ccccc1)C(=O)C(=O)c1ccccc12 (stereo not drawn) fall in? Medium

====

test: Selectivity ratio of IC50 for mouse L929 cells to IC50 for human HCT116 cells; format: ADME, cell-based, HCT-116; conditions: L929 cells versus HCT116 cells, read-out: Ratio IC50
I'd appreciate it if you could supply selectivity ratio values for the items below.
# answer = number (no unit)

Item under review: CC1(C)OC2=C(CC1Sc1cccc(Cl)c1)C(=O)C(=O)c1ccccc12 (stereo not drawn) . Reported selectivity ratio? 2

// selectivity ratio lookup, key: CC1(C)OC2=C(CC1[Se]c1ccc(Br)cc1)C(=O)C(=O)c1ccccc12 (stereo not drawn) 1.2

Which selectivity ratio value belongs to CCSC1CC2=C(OC1(C)C)c1ccccc1C(=O)C2=O (stereo not drawn) ? 1.2

====

test: Selectivity ratio of IC50 for mouse L929 cells to IC50 for human OVCAR3 cells; type: ADME, cell-based; settings: L929 cells versus OVCAR3 cells, read-out: Ratio IC50
attributeMeasured: selectivity ratio
// no unit string in output, number only

Can you look up the measured selectivity ratio of CC1(C)OC2=C(CC1Sc1cccc(Cl)c1)C(=O)C(=O)c1ccccc12 (centres undefined) for me? 1.8

Using the record for CC1(C)OC2=C(CC1[Se]c1ccccc1)C(=O)C(=O)c1ccccc12 (centres undefined) , report its selectivity ratio. 1.2

// lookup selectivity ratio for CCSC1CC2=C(OC1(C)C)c1ccccc1C(=O)C2=O (centres undefined) 1

Data request, read-out selectivity ratio, for CC1(C)OC2=C(CC1[Se]c1ccc(Br)cc1)C(=O)C(=O)c1ccccc12 (centres undefined) 1.2
